- target_desc: T1, ErbB3 extracellular domain (recombinant, soluble) (UniProt P21860 20-643, limits assumed)
- T1 construct: extracellular domain; also called ectodomain of erbB3
- assay_name: SPR (Biacore 3000), control peptide injected over immobilized receptor extracellular domain
pKd: −log10 of the molar value. Bridge positions count the residues as written; N and C are the ends. Ends that are not written are not given here.
outcome_measure: pKd

Entry FCYIGEVEDQCY (disulfide 2-11 (inferred), also called control peptide) [CD4-G (CD4 receptor-derived cyclic peptide, negative control)] , pKd reported as < 3.00
